System: Noggin (protein binding on small-molecule microarray)
experimental details: small molecules binding Noggin protein – biochemical, 635/667 nm fluorescence, primary screen (AID 1095);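 note: score merges 667 nm feature fluorescence with signal to noise over triplicate slides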
setup conditions: 635 nm fluorescence, higher = more signal
metric name: composite z-score
Kindly provide the number alone.

Known results for compounds:
COCCOC(=O)N1C(=O)[C@@]2(c3cc(C#CC4=CCCCC4)ccc31)[C@H](c1ccc(OCCO)cc1)N1[C@H](c3ccccc3)[C@H](c3ccccc3)OC(=O)[C@H]1[C@@H]2C(=O)Nc1nc2ccccc2s1; 0.772
C=CCC(OC(C)=O)[C@@H]1[C@@H](N(Cc2ccc(-c3ccccc3)cc2)C(=O)c2ccc(C)cc2)c2cc(OCCCO)ccc2N1C(=O)Cc1ccc(OC)cc1 (some centres undefined); 0.0438

For record COCCOC(=O)N1C(=O)[C@@]2(c3cc(C#Cc4ccc(OC)cc4)ccc31)[C@H](C(N)=O)[C@H]1C(=O)O[C@H](c3ccccc3)[C@H](c3ccccc3)N1[C@@H]2c1ccc(O)cc1 the listed composite z-score is -2.13

// composite z-score lookup, compound = COC(=O)[C@@]1(Cc2ccc(F)cc2)[C@H]2c3cc(C(=O)N(C)C)n(CCCNc4ccc(C(F)(F)F)cc4Cl)c3C[C@H]2CN1C(=O)c1ccccc1 , result: 0.282

Sure, the documented composite z-score for CCCC[C@@H]1C[C@H]1[C@@H](NC(=O)c1ccco1)c1ccccc1 is -1.77

The recorded composite z-score for entry O=C1C2C=CC(C(O)c3ccc(Br)cc3)N(n3cnnc3)C2C(=O)N1Cc1ccccc1 (centres undefined) equals 0.57

In plain terms, COc1cc(NN2C(C(O)c3ccccc3)C=CC3C(=O)N(c4ccccc4)C(=O)C32)cc(OC)c1OC (centres undefined) has a documented composite z-score of 0.833
